test system: Humanized Rat Basophil Leukaemia (RBL) cells (clone RBL-703/21); experiment: human RBL assay: β-hexosaminidase release of humanized RBL cells loaded with patients' serum IgE; type: cell-based; conditions: synthetic alphaS1-casein-derived peptides
endpointName: extent of degranulation relative to the activity of the complete protein

Worked examples follow.
{"primarySequence": "CPMIGVNQELAYFYPELFRQFYQLDAYPSGAWYYV [Cas 5, synthetic peptide of αS1-casein]", "result": "about a tenth"}
{"primarySequence": "CLKKYKVPQLEIVPNSAEERLHSMKEGIHIAQQKE [Cas 4, synthetic peptide of αS1-casein]", "result": "about a tenth"}
{"primarySequence": "FGKEKVNELSKDIGSESTEDQAMEDIKQMEAES [Cas 2, synthetic peptide of αS1-casein]", "result": "one fourth"}
{"primarySequence": "ISSSEEIVPNSVEQKHIQKEDVPSERYLGYEQLLRC [Cas 3, synthetic peptide of αS1-casein]", "result": "about a tenth"}

Now for a further sequence.
For record PLGTQYTDAPSFSDIPNPIGSENSEKTTMPLWC [Cas 6, synthetic peptide of αS1-casein] the listed extent of degranulation relative to the activity of the complete protein is one fourth

---

test system: serum IgE of cow's milk allergic patients; assay: IgE binding capacity (IgE reactivity) of milk components with patients' sera; set-up: species or system human; details: sera of cow's milk allergic patients (n=78)
Record form. Attribute: IgE binding (% of patients). Fill in for each entry.

For record RPKHPIKHQGLPQEVLNENLLRFFVAPFPEVC [Cas 1, synthetic peptide of αS1-casein] the listed IgE binding (% of patients) is 43.6 % of patients

For record FGKEKVNELSKDIGSESTEDQAMEDIKQMEAES [Cas 2, synthetic peptide of αS1-casein] the listed IgE binding (% of patients) is 15.4 % of patients

For record CLKKYKVPQLEIVPNSAEERLHSMKEGIHIAQQKE [Cas 4, synthetic peptide of αS1-casein] the listed IgE binding (% of patients) is 35.9 % of patients

For record PLGTQYTDAPSFSDIPNPIGSENSEKTTMPLWC [Cas 6, synthetic peptide of αS1-casein] the listed IgE binding (% of patients) is 37.2 % of patients

For record CPMIGVNQELAYFYPELFRQFYQLDAYPSGAWYYV [Cas 5, synthetic peptide of αS1-casein] the listed IgE binding (% of patients) is 41.0 % of patients

For record ISSSEEIVPNSVEQKHIQKEDVPSERYLGYEQLLRC [Cas 3, synthetic peptide of αS1-casein] the listed IgE binding (% of patients) is 46.2 % of patients

---

Test system: patients' serum IgE
Test: microarray IgE reactivity testing of ALA-derived peptides
Type: binding, human
Details: sera from the 36 patients with IgE reactivity to rALA
Description: IgE reactivity testing to ALA-derived peptides:IgE reactivities of the ALA-derived peptides were determined by microarray analysis as described (Schulmeister et al., J Immunol. 182(11):7019-29). In brief, milk components were spotted onto a capillary-flow membrane on an ordinary microscope glass slide and incubated with 25 μl of patients' sera. Bound IgE antibodies were detected with a fluorescence-conjugated anti-IgE antibody at a wavelength of 670 nm. […]
Record form. Attribute: IgE binding (% of patients). Fill in for each entry.

For record MCVKKILDKVGINYWLAHKA [Lac7, synthetic ALA-derived peptide] the listed IgE binding (% of patients) is 2.8 % of patients

For record LKGYGGVSLPEWVCTTFHTS [Lac2, synthetic ALA-derived peptide] the listed IgE binding (% of patients) is 33.3 % of patients

For record EQLTKCEVFRELKDLKGYG [Lac1, synthetic ALA-derived peptide] the listed IgE binding (% of patients) is 30.6 % of patients

For record LAHKALCSEKLDQWLCEKL [Lac8, synthetic ALA-derived peptide] the listed IgE binding (% of patients) is 11.1 % of patients

For record TFHTSGYDTQA1YQNNDSTE (TFHTSGYDTQAIYQNNDSTE) [Lac3, synthetic ALA-derived peptide] the listed IgE binding (% of patients) is 0 % of patients

For record NDSTEYGLFQINNK1WCKDD (NDSTEYGLFQINNKIWCKDD) [Lac4, synthetic ALA-derived peptide] the listed IgE binding (% of patients) is 5.6 % of patients

For record WCKDDQNPHSSNICNISCDK [Lac5, synthetic ALA-derived peptide] the listed IgE binding (% of patients) is 2.8 % of patients

For record ISCDKFLDDDLTDDIMCVKK [Lac6, synthetic ALA-derived peptide] the listed IgE binding (% of patients) is 2.8 % of patients
